experiment: yeast display, Sf9 membrane polyspecificity reagent, FACS + sequencing; frameworks hold sequencing errors
QUANTITY NAME: polyreactivity (PSR sort gate)

QVQLVESGGGLVQAGGSLRLRCAASGSIFKSNAMGWYRQAPGKERELVAAISNGGITNYADSVKGRFTISRDNAKNTVYLQMNSLKPEDTAVYYCATSDVREIWVDYCGQGTQVTVSS low polyreactivity
QVQHVESGGGLVQAGCSLRLSCAASGSIFSSYAMGWYRQAPGKERELVAAISQSGGDTYYADSVKGRFKISRDNAKNTVYLQMNSLKPEDTAVYYCAASVWFYPMDYWGQGTQVTVSS low polyreactivity

---

test: yeast display, Sf9 membrane polyspecificity reagent, FACS + sequencing; frameworks hold sequencing errors
QUANTITY NAME: polyreactivity (PSR sort gate)

Example entries begin here.
QVQLVESGGGLVQAGGSLRLSCAASGFTFLRYAMGWYRQAPGKERELVAAISTSGGRTYYADSVKGRFTISRDNAKNTVYLQMNSLKPEDTAVYYCNAAGGYRTSPSDYWGQGTQVTVSS high polyreactivity
QVQLVESGGGLVQAGGSLRLSCAASGITFQYYAMGWYRQAPGKERELVAAITSSGVSTYYADSVKGRFTISRDNAKNTVYLQMNSLKPEDTAVYYCNTVVRGWSSSAYDYWGQGTQVTVSS low polyreactivity
QVQLVESGGGLVQAGGSLSLSCAASGSTFIKNAMGWYRQAPGKESELVAAINWSGTRTYYADSVKGRFTISRDNANNTVYLKMNSLKPEDTAVYYCAKVIARFVRYDYWGQGTQVTVSS high polyreactivity
QFQLVESGGGLVQAGGSLRLSCAASGIILAYYAMGWYRKEPGKERELVSSINRSGGSTYYADSVKGRFTISRDNAKNTVYLQMISLKPEYTAVYYCAATNRGVGQRSYRYYYWGQGTQVSVSS high polyreactivity

# input for lookup
*Q* Using the record for `QVQLVESGGGLVQAGGSLRLSCAASGRIFRVNAMGWYRQAPGKERELVAAINFSGTSTYYADSVKGRFTISRDNAKNTVYLQMNSLKPEDTAVYYCNALTTSNSGRFYYWGQGTQVTVSS` , state its measured polyreactivity (PSR sort gate).
*A* low polyreactivity
